B1: HESX1 (parent)
chain: HVPNPPSGISFPSVVDHPMPEERA

# Variants of: B1
# Protocol text: protein stability index of a GFP-peptide fusion (GPS, HEK-293T) (PSI 1-6); higher = more stable;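 also: lentivirally expressed fusions sorted by FACS into six bins by GFP to DsRed ratio, PSI derived from sequencing read proportions per bin multiplied by bin number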
# Test context: c terminus: a fixed tail appended
Reported metric: protein stability index

| Residue sequence | Reported metric | Reported measurement |
| --- | --- | --- |
| HVPNPPNGISFPSVVDHPMPEERA [S7N] | protein stability index | 2.99 |
| HVPNPPSGISFPSVVDHPRPEERA [M19R] | protein stability index | 2.83 |
| HVPNPPSGISFPSVVDTPMPEERA [H17T] | protein stability index | 2.94 |
| HVPNPPSGISFPSVVDHPMPEELA [R23L] | protein stability index | 2.1 |
| HVPNPPSGPSFPSVVDHPMPEERA [I9P] | protein stability index | 2.23 |
| HVPNPPSGISFPSVVDHPMPEWRA [E22W] | protein stability index | 2.37 |
| HVPNPPSGISFPSVVDHKMPEERA [P18K] | protein stability index | 2.7 |
| HVPNPPSGISFPSVVDHPMQEERA [P20Q] | protein stability index | 2.78 |
| HVPNPPSGISFPSVVDHPMPEEWA [R23W] | protein stability index | 2.37 |
| HVPNPPSGISFPSVVDHMMPEERA [P18M] | protein stability index | 2.49 |
| HVPNPPSGISFPSVVFHPMPEERA [D16F] | protein stability index | 1.9 |
| HVPNPPSGISFPSIVDHPMPEERA [V14I] | protein stability index | 3.11 |
| HVPNPPSGISFCSVVDHPMPEERA [P12C] | protein stability index | 2.72 |
| HVPNPPSGISFPSVVDHPMPEERP [A24P] | protein stability index | 2.98 |
| HVPNPPMGISFPSVVDHPMPEERA [S7M] | protein stability index | 2.74 |
| HVPNPPSGISFPSVVDHPHPEERA [M19H] | protein stability index | 3.03 |
| HVPNPNSGISFPSVVDHPMPEERA [P6N] | protein stability index | 2 |
| HVPNPPSGISFPSVVDHNMPEERA [P18N] | protein stability index | 2.62 |
| HVPNPPSGISFPSVVDHPMPEEHA [R23H] | protein stability index | 2.99 |
| HVPNPPSCISFPSVVDHPMPEERA [G8C] | protein stability index | 2.36 |
| HVPNPPSGISRPSVVDHPMPEERA [F11R] | protein stability index | 4.37 |
| HVPNPWSGISFPSVVDHPMPEERA [P6W] | protein stability index | 2.25 |
